target: Cyclin Dependent Kinase 2/Cyclin E1 (CDK2-cycE1) (Homo sapiens, UniProt P24941); construct: purchased ProQinase 0050-0055-1; assay: CDK2-cycE1 TR-FRET (LANCE) enzyme assay; assay type: biochemical; conditions: Table O, enzymatic assay; read-out: CDK2 Ki
MEASURED_METRIC: Ki (nM)
API: value field is a number in nM; no unit string.

-- ask Item under review: Cc1nccnc1Nc1cc([C@H]2CC[C@@H](OC(=O)NC3(C)COC3)C2)[nH]n1 [Example 8B] . Reported Ki?
-- reply 0.66

-- ask Cc1cnccc1Nc1cc([C@H]2CC[C@@H](OC(=O)NC34CC(C3)C4)C2)[nH]n1 [Example 9G] , same question.
-- reply 12

-- ask CNc1ncc(Nc2cc([C@H]3CC[C@@H](OC(=O)NC(C)C)C3)[nH]n2)cn1 [Example 2GG] , same question.
-- reply 480

-- ask Cc1ncccc1Nc1cc([C@H]2CC[C@@H](OC(=O)N[C@@H]3CCN(C)C3)C2)[nH]n1 [Example 7B] , same question.
-- reply 300

-- ask CN1CCN(c2ccc(Nc3cc([C@H]4CC[C@@H](OC(=O)NC56CC(C5)C6)C4)[nH]n3)cn2)CC1 [Example 9H] , same question.
-- reply 4.7

-- ask CC1(NC(=O)O[C@@H]2CC[C@H](c3cc(Nc4cccnn4)n[nH]3)C2)CNC1 [Example 3F] , same question.
-- reply 4

-- ask Cc1ncccc1Nc1cc([C@H]2CC[C@@H](OC(=O)NC(C)(C)C)C2)[nH]n1 [Example 4] , same question.
-- reply 0.22

-- ask C[C@H](NC(=O)O[C@@H]1CC[C@H](c2cc(Nc3cccnn3)n[nH]2)C1)C(F)(F)F (single isomer, unassigned) [Example 5A] , same question.
-- reply 63

-- ask O=C(NC12CC(C1)C2)O[C@@H]1CC[C@H](c2cc(Nc3cccnn3)n[nH]2)C1 [Example 3] , same question.
-- reply 1.8

-- ask Cc1cc(=O)n(C)cc1Nc1cc([C@H]2CC[C@@H](OC(=O)NC(C)C)C2)[nH]n1 [Example 2S] , same question.
-- reply 890

-- ask COc1ncc(Nc2cc([C@H]3CC[C@@H](OC(=O)NC(C)C)C3)[nH]n2)c(C)n1 [Example 2X] , same question.
-- reply 59

-- ask COc1ccc(Nc2cc([C@H]3CC[C@@H](OC(=O)NC(C)C)C3)[nH]n2)nn1 [Example 2JJ] , same question.
-- reply 77

-- ask O=C(NC1(C(F)(F)F)CC1)O[C@@H]1CC[C@H](c2cc(Nc3cccnn3)n[nH]2)C1 [Example 5] , same question.
-- reply 11

-- ask CN1CCC(NC(=O)O[C@@H]2CC[C@H](c3cc(Nc4cccnn4)n[nH]3)C2)CC1 [Example 3E] , same question.
-- reply 10

###

biological target: Cyclin Dependent Kinase 2/Cyclin E1 (CDK2-cycE1) (Homo sapiens, UniProt P24941); construct: purchased ProQinase 0050-0055-1; assay: CDK2-cycE1 TR-FRET (LANCE) enzyme assay; type: biochemical; conditions: Table R, in brackets after CDK2 Ki
MEASURED_METRIC: CDK2 Ki fold change in potency versus Comparator D (fold)
API: value field is a number in fold; no unit string.

-- ask # query: CDK2 Ki fold change in potency versus Comparator D | item `CC(C)(C)NC(=O)O[C@@H]1CC[C@H](c2cc(Nc3ccccn3)n[nH]2)C1` | system: Cyclin Dependent Kinase 2/Cyclin E1 (CDK2-cycE1) (Homo sapiens, UniProt P24941)
-- reply 1.6

-- ask `CC(C)(C)NC(=O)O[C@@H]1CC[C@H](c2cc(Nc3ccnnc3)n[nH]2)C1` , same question.
-- reply 6

-- ask `CNC(=O)c1ccc(Nc2cc([C@H]3CC[C@@H](OC(=O)NC(C)(C)C)C3)[nH]n2)nc1` , same question.
-- reply 1.7

###

Task for the reader: assign each of the following compounds its reported pIC50.
test system: SKOV-3 (ATCC HTB-77); assay: SKOV-3 EdU incorporation cell proliferation assay (CDK4/6-dependent); assay type: cell-based; conditions: Homo sapiens, SK-OV-3, Table S, cellular assay; read-out: CDK4/6 SKOV-3 IC50
Kindly note that pIC50 refers to -log10 of the concentration in mol/L and answer with the value alone.

-- ask # query: pIC50 | item `CC(C)(C)NC(=O)O[C@@H]1CC[C@H](c2cc(Nc3ncccn3)n[nH]2)C1` | system: SKOV-3 (ATCC HTB-77)
-- reply 5.92

-- ask `CC(C)(C)NC(=O)O[C@@H]1CC[C@H](c2cc(Nc3ccccn3)n[nH]2)C1` , same question.
-- reply 5.82

-- ask `CNC(=O)c1ccnc(Nc2cc([C@H]3CC[C@@H](OC(=O)NC(C)(C)C)C3)[nH]n2)c1` , same question.
-- reply 5.77

-- ask `CC(C)NC(=O)O[C@@H]1CC[C@H](c2cc(Nc3cccnc3)n[nH]2)C1` , same question.
-- reply 5.66

-- ask `CNC(=O)c1ccc(Nc2cc([C@H]3CC[C@@H](OC(=O)NC(C)(C)C)C3)[nH]n2)nc1` , same question.
-- reply 5.59

-- ask CC(C)(C)NC(=O)O[C@@H]1CC[C@H](c2cc(Nc3ccccc3)n[nH]2)C1 [Comparator E, reference compound] , same question.
-- reply 5.57

###

target: Cyclin Dependent Kinase 2/Cyclin E1 (CDK2-cycE1) (Homo sapiens, UniProt P24941); construct: purchased ProQinase 0050-0055-1; experiment: CDK2-cycE1 TR-FRET (LANCE) enzyme assay; assay type: biochemical; conditions: Table S, enzymatic assay; read-out: CDK2 Ki
Task for the reader: assign each of the following molecules its reported Ki.
API: value field is a number in nM; no unit string.

-- ask Item under review: `CC(C)NC(=O)O[C@@H]1CC[C@H](c2cc(Nc3cccnc3)n[nH]2)C1` . Reported Ki?
-- reply 1.7

-- ask `CC(C)(C)NC(=O)O[C@@H]1CC[C@H](c2cc(Nc3cccnn3)n[nH]2)C1` , same question.
-- reply 2.5

-- ask `Cn1cc(Nc2cc([C@H]3CC[C@@H](OC(=O)NC(C)(C)C)C3)[nH]n2)ccc1=O` , same question.
-- reply 7.6

-- ask `Cc1ccncc1Nc1cc([C@H]2CC[C@@H](OC(=O)NC(C)(C)C)C2)[nH]n1` , same question.
-- reply 2.6

###

biological target: Cyclin Dependent Kinase 4/Cyclin D3 (CDK4-cycD3) (Homo sapiens, UniProt P11802); construct: purchased Carna Biosciences 04-105; experiment: CDK4-cycD3 TR-FRET (LANCE) enzyme assay; format: biochemical; conditions: Table O, enzymatic assay
Sequence (P11802 whole entry): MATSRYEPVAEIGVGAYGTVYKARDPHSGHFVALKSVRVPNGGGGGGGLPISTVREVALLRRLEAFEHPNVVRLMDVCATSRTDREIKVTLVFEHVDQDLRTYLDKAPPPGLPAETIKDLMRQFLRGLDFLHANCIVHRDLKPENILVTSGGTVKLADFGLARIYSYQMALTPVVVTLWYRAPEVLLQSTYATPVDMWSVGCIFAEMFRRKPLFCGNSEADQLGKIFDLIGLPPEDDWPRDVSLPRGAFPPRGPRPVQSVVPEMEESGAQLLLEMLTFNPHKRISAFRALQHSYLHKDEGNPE
Sequence (P30281 whole entry partner): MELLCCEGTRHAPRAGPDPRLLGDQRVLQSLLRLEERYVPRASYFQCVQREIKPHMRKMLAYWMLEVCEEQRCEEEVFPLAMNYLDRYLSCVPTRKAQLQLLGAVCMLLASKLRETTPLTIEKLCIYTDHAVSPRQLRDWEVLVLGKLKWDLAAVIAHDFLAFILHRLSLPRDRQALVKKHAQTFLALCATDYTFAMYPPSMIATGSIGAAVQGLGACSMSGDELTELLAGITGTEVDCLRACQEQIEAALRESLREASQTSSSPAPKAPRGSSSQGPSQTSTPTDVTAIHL
MEASURED_METRIC: pKi
Kindly note that pKi refers to -log10 of the concentration in mol/L and answer with the value alone.

-- ask Item under review: `O=C(NC12CC(C1)C2)O[C@@H]1CC[C@H](c2cc(Nc3ccc(CO)nc3)n[nH]2)C1` . Reported pKi?
-- reply 7.43

-- ask `CNC(=O)c1ccc(Nc2cc([C@H]3CC[C@@H](OC(=O)NC(C)(C)C)C3)[nH]n2)nc1` , same question.
-- reply 7.08

-- ask `Cc1ncccc1Nc1cc([C@H]2CC[C@@H](OC(=O)NC3(C)COC3)C2)[nH]n1` , same question.
-- reply 6.18

###

target: Cyclin Dependent Kinase 4/Cyclin D3 (CDK4-cycD3) (Homo sapiens, UniProt P11802); construct: purchased Carna Biosciences 04-105; assay: CDK4-cycD3 TR-FRET (LANCE) enzyme assay; type: biochemical; details: Table O, enzymatic assay
Task for the reader: assign each of the following compounds its reported pKi.
Kindly note that pKi refers to -log10 of the concentration in mol/L and answer with the value alone.

-- ask Item under review: COc1cncc(Nc2cc([C@H]3CC[C@@H](OC(=O)NC(C)C)C3)[nH]n2)n1 [Example 2N] . Reported pKi?
-- reply 7.59

-- ask O=C(NC1(C(F)(F)F)CC1)O[C@@H]1CC[C@H](c2cc(Nc3cccnn3)n[nH]2)C1 [Example 5] , same question.
-- reply 6.55

-- ask Cc1cnc(Nc2cc([C@H]3CC[C@@H](OC(=O)NC(C)C)C3)[nH]n2)c(C)n1 [Example 2V] , same question.
-- reply 6.59

-- ask CC(C)(C)NC(=O)O[C@@H]1CC[C@H](c2cc(Nc3ncccn3)n[nH]2)C1 [Example 4J] , same question.
-- reply 7.96

-- ask O=C(NC12CC(C1)C2)O[C@@H]1CC[C@H](c2cc(Nc3cccnn3)n[nH]2)C1 [Example 3] , same question.
-- reply 6.96

-- ask Cc1ncc(Nc2cc([C@H]3CC[C@@H](OC(=O)NC(C)C)C3)[nH]n2)c(C)n1 [Example 2W] , same question.
-- reply 5.51

-- ask C[C@@H](NC(=O)O[C@@H]1CC[C@H](c2cc(Nc3cccnn3)n[nH]2)C1)C(F)(F)F (single isomer, unassigned) [Example 5B] , same question.
-- reply 6.29

-- ask COc1nc(C)ncc1Nc1cc([C@H]2CC[C@@H](OC(=O)NC(C)C)C2)[nH]n1 [Example 2Y] , same question.
-- reply 4.31

This collection of values is drawn from patent US20240425478A1.
